- Species on record: Rattus norvegicus
- Assay summary: DrugMatrix - Regimen: Daily Repeat
- Assay type: toxicity, organism-based, Sprague-Dawley
- Set-up: regimen Daily Repeat, gender Male, age 6-8 weeks
- Condition parameters: in vivo, po, 0 mg/kg, 120 h, tissue Plasma, route oral GAVAGE, dose level Control, time 5 day, vehicle .5 % CMC
Recorded ALKALINE PHOSPHATASE, one value per entry.
Answer in u/L, number only, no unit symbol.

// worked examples, ALKALINE PHOSPHATASE included
Smiles str	ALKALINE PHOSPHATASE (u/L)
CN(C/C=C/C#CC(C)(C)C)Cc1cccc2ccccc12	340.33
Clc1ccccc1CN1CCc2sccc2C1	316.67
C[C@H]1O[C@@H](n2cc(F)c(=O)[nH]c2=O)[C@H](O)[C@@H]1O	337

Pending molecule:
Request: What value of measured ALKALINE PHOSPHATASE is listed for `COc1cc2nc(N3CCN(C(=O)c4ccco4)CC3)nc(N)c2cc1OC` ?
Response: 352.33

====

- Species: Rattus norvegicus
- Assay summary: DrugMatrix - Regimen: Daily Repeat
- Format: toxicity, organism-based, Sprague-Dawley
- Set-up: regimen Daily Repeat, gender Male, age 6-8 weeks
- Condition parameters: in vivo, po, 0 mg/kg, 120 h, tissue Blood, route oral GAVAGE, dose level Control, time 5 day, vehicle .5 % CMC
This section presents compounds with their documented MEAN CORPUSCULAR HEMOGLOBIN values.
Give a bare numeral; the unit pg is implied.

Example entries begin here.
Compound	Units	MEAN CORPUSCULAR HEMOGLOBIN
NCCCC(O)(P(=O)(O)O)P(=O)(O)O	pg	23.57
NC1CCN(c2nc3c(cc2F)c(=O)c(C(=O)O)cn3-c2ccc(F)cc2F)C1 (stereo not given)	pg	21.96
COc1ccc(C2C(=O)c3ccccc3C2=O)cc1	pg	23.57
Clc1ccccc1CN1CCc2sccc2C1	pg	23.57
C[C@H]1O[C@@H](n2cc(F)c(=O)[nH]c2=O)[C@H](O)[C@@H]1O	pg	25.68

Request: Could you tell me which MEAN CORPUSCULAR HEMOGLOBIN is on file for `O=C1CN=C(c2ccccc2Cl)c2cc([N+](=O)[O-])ccc2N1` ?
Response: 25.68

Request: Quick one: MEAN CORPUSCULAR HEMOGLOBIN for `CN(C/C=C/C#CC(C)(C)C)Cc1cccc2ccccc12` ?
Response: 21.96

Request: Which MEAN CORPUSCULAR HEMOGLOBIN is listed for `COC1=C(OC)C(=O)C(CCCCCCCCCCO)=C(C)C1=O` ?
Response: 25.68

Request: Look at this compound and give its reported MEAN CORPUSCULAR HEMOGLOBIN. O=C1C(CC[S+]([O-])c2ccccc2)C(=O)N(c2ccccc2)N1c1ccccc1 (stereo not given)
Response: 23.95

Request: Quick check: MEAN CORPUSCULAR HEMOGLOBIN of `CN/C(=N/CCSCc1nc[nH]c1C)NC#N` ?
Response: 25.68

Request: Field request: MEAN CORPUSCULAR HEMOGLOBIN | item: CNCCC(Oc1ccc(C(F)(F)F)cc1)c1ccccc1 (stereo not given)
Response: 24.25

Request: What value of MEAN CORPUSCULAR HEMOGLOBIN has been reported for the following compound? `CN(C)[C@@H]1C(O)=C(C(N)=O)C(=O)[C@@]2(O)C(O)=C3C(=O)c4c(O)ccc(Cl)c4[C@@](C)(O)[C@H]3C[C@@H]12`
Response: 25.23

Request: // MEAN CORPUSCULAR HEMOGLOBIN lookup, key: `CC(=O)Oc1ccc(C(c2ccc(OC(C)=O)cc2)c2ccccn2)cc1`
Response: 24.65

Request: Name the recorded MEAN CORPUSCULAR HEMOGLOBIN for O=C1Nc2ccc(Cl)cc2C(c2ccccc2Cl)=NC1O (stereo not given) .
Response: 23.95

Request: Suppose we examine the compound `CCN(CC)CCOc1ccc(/C(=C(/Cl)c2ccccc2)c2ccccc2)cc1` ; what MEAN CORPUSCULAR HEMOGLOBIN value has been reported?
Response: 23.22
